target: Caspase-6 (Homo sapiens); test: Inhibition of recombinant MCH2 (unknown origin) assessed as ratio of irreversible rate constant K3 to dissociation constant of the reversible binding step Ki pre-incubated for 60 mins with Acetyl-Tyr-Val-Ala-Asp-amino-4-methylcoumarin substrate followed by enzyme addition by fluorescence based assay
value kind: Ratio (M⁻¹ s⁻¹)

compound string	display unit	Ratio
CC(C)[C@H](NC(=O)C(=O)Nc1ccccc1C(F)(F)F)C(=O)N[C@@H](CC(=O)O)C(=O)COc1c(F)c(F)cc(F)c1F	M⁻¹ s⁻¹	261000
C[C@H](NC(=O)C(=O)NCc1ccccc1)C(=O)N[C@@H](CC(=O)O)C(=O)COC(=O)c1c(Cl)cccc1Cl	M⁻¹ s⁻¹	244000

---

molecular target: Caspase-3 (Homo sapiens) (UniProt P42574); assay: Inhibition of recombinant CPP32 (unknown origin) assessed as ratio of irreversible rate constant K3 to dissociation constant of the reversible binding step Ki pre-incubated for 60 mins with Acetyl-Tyr-Val-Ala-Asp-amino-4-methylcoumarin substrate followed by enzyme addition by fluorescence based assay
Sequence (P42574 29-175 limits assumed): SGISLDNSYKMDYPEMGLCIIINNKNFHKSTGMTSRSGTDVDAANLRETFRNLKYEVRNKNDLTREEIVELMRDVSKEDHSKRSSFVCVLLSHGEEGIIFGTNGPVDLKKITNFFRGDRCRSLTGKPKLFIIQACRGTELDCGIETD
Sequence (P42574 176-277 limits assumed): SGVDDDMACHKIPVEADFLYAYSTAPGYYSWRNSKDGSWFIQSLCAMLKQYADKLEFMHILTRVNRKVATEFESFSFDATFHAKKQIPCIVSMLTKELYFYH
value kind: Ratio (M⁻¹ s⁻¹)

Worked cases, answers included:
molecule	result
CC(C)[C@H](NC(=O)C(=O)Nc1ccc(F)cc1)C(=O)N[C@@H](CC(=O)O)C(=O)COc1c(F)c(F)cc(F)c1F	36300
C[C@H](NC(=O)C(=O)Nc1cc(C(F)(F)F)ccc1N1CCCC1)C(=O)N[C@@H](CC(=O)O)C(=O)COP(=O)(c1ccccc1)c1ccccc1	78600

P. C[C@H](NC(=O)C(=O)NCc1cccc2ccccc12)C(=O)N[C@@H](CC(=O)O)C(=O)COC(=O)c1c(Cl)cccc1Cl
Q. CC(C)[C@H](NC(=O)C(=O)Nc1cccc2ccccc12)C(=O)NC(CC(=O)O)C(=O)CF (mixture of isomers)
R. CC(C)[C@H](NC(=O)C(=O)Nc1ccccc1Br)C(=O)N[C@@H](CC(=O)O)C(=O)COc1c(F)c(F)cc(F)c1F
S. CC(C)[C@H](NC(=O)C(=O)Nc1ccccc1C(F)(F)F)C(=O)N[C@@H](CC(=O)O)C(=O)COc1c(F)c(F)cc(F)c1F
T. C[C@H](NC(=O)C(=O)Nc1ccc(F)cc1)C(=O)N[C@@H](CC(=O)O)C(=O)COC(=O)c1c(Cl)cccc1Cl
Challenge: Returns the items ordered by Ratio, from maximum to minimum. Form entry: ranked labels (order as requested).
Response given: Q, R, P, S, T
(Q: 413000 M⁻¹ s⁻¹, R: 276000 M⁻¹ s⁻¹, P: 187000 M⁻¹ s⁻¹, S: 57400 M⁻¹ s⁻¹, T: 22700 M⁻¹ s⁻¹)

I. CC(C)[C@H](NC(=O)C(=O)Nc1ccncc1)C(=O)N[C@@H](CC(=O)O)C(=O)COc1c(F)c(F)cc(F)c1F
II. CC(C)[C@H](NC(=O)C(=O)Nc1cccc2ccccc12)C(=O)N[C@@H](CC(=O)O)C(=O)COc1ccc(O)cc1
III. C[C@H](NC(=O)C(=O)NC1CCCCC1)C(=O)N[C@@H](CC(=O)O)C(=O)COP(=O)(c1ccccc1)c1ccccc1
Challenge: Provide the items ranked by increasing Ratio. Your reply should list the labels following the order given in the request.
Response given: I, III, II

I. CC(C)[C@H](NC(=O)C(=O)Nc1cccc2ccccc12)C(=O)N[C@@H](CC(=O)O)C(=O)COc1c(-c2ccccc2)oc2ccccc2c1=O
II. CC(C)[C@H](NC(=O)C(=O)Nc1ccccc1Cl)C(=O)N[C@@H](CC(=O)O)C(=O)COc1c(F)c(F)cc(F)c1F
III. CC(C)[C@H](NC(=O)C(=O)NCc1ccccc1)C(=O)N[C@@H](CC(=O)O)C(=O)COc1c(F)c(F)cc(F)c1F
Challenge: Task for the reader: rank each entry by its Ratio, from the minimum upward. Sort the labels as requested; that list is your answer.
Response given: III, I, II

I. CC(C)[C@H](NC(=O)C(=O)Nc1cc(C(C)(C)C)ccc1C(C)(C)C)C(=O)N[C@@H](CC(=O)O)C(=O)COc1c(F)c(F)cc(F)c1F
II. COc1ccccc1NC(=O)C(=O)N[C@H](C(=O)N[C@@H](CC(=O)O)C(=O)COc1c(F)c(F)cc(F)c1F)C(C)C
Challenge: // compare measured Ratio between I and II ; output the lower one // respond with label for picked entry
Response given: II
(II: 10800 M⁻¹ s⁻¹, I: 70600 M⁻¹ s⁻¹)

---

target: UniProtKB Q14790; experiment: Inhibition of recombinant MCH5 (unknown origin) assessed as ratio of irreversible rate constant K3 to dissociation constant of the reversible binding step Ki pre-incubated for 60 mins with Acetyl-Tyr-Val-Ala-Asp-amino-4-methylcoumarin substrate followed by enzyme addition by fluorescence based assay
Sequence (Q14790 217-374 limits assumed): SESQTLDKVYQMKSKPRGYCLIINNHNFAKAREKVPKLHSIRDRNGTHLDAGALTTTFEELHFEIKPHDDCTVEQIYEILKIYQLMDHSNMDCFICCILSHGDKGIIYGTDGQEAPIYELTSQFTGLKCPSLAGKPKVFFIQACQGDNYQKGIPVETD
Sequence (Q14790 385-479 limits assumed): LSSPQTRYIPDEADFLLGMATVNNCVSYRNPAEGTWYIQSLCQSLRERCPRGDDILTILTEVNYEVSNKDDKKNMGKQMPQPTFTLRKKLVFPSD
Where a SMILES comes first, the peptide text is derived from it. The star is where a group is joined. Cbz = O=C(OCc1ccccc1)*; CH2F = FC*
value kind: Ratio (M⁻¹ s⁻¹)

Answered examples (5):
compound	display unit	Ratio
COc1ccccc1NC(=O)C(=O)N[C@H](C(=O)N[C@@H](CC(=O)O)C(=O)COc1c(F)c(F)cc(F)c1F)C(C)C	M⁻¹ s⁻¹	2.68e+06
C[C@H](NC(=O)C(=O)NCc1cccc2ccccc12)C(=O)N[C@@H](CC(=O)O)C(=O)COc1c(F)c(F)cc(F)c1F	M⁻¹ s⁻¹	1.26e+06
CC(C)[C@H](NC(=O)C(=O)Nc1c(F)c(F)nc(F)c1F)C(=O)N[C@@H](CC(=O)O)C(=O)COc1c(F)c(F)cc(F)c1F	M⁻¹ s⁻¹	389000
CC(C)[C@H](NC(=O)C(=O)Nc1ccccn1)C(=O)N[C@@H](CC(=O)O)C(=O)COc1c(F)c(F)cc(F)c1F	M⁻¹ s⁻¹	19500
CC(C)[C@H](NC(=O)C(=O)Nc1ccccc1Br)C(=O)N[C@@H](CC(=O)O)C(=O)COc1c(F)c(F)cc(F)c1F	M⁻¹ s⁻¹	1.3e+06

A. CC(C)[C@H](NC(=O)C(=O)Nc1cccc2ccccc12)C(=O)N[C@@H](CC(=O)O)C(=O)COc1ccc(O)cc1
B. CC(C)[C@H](NC(=O)OCc1ccccc1)C(=O)N[C@@H](C)C(=O)N[C@@H](CC(=O)O)C(=O)CF (Cbz-Val-Ala-Asp-CH2F)
C. CC(C)[C@H](NC(=O)C(=O)Nc1cccc2ccccc12)C(=O)N[C@@H](CC(=O)O)C(=O)COc1cccc2ccccc12
D. CC(C)[C@H](NC(=O)C(=O)Nc1ccncc1)C(=O)N[C@@H](CC(=O)O)C(=O)COc1c(F)c(F)cc(F)c1F
E. C[C@H](NC(=O)C(=O)Nc1ccc(F)cc1)C(=O)N[C@@H](CC(=O)O)C(=O)COC(=O)c1c(Cl)cccc1Cl
Challenge: # rank_down: sort by Ratio, max first Sort the labels as requested; that list is your answer.
Response given: A, C, B, E, D

I. CC(C)[C@H](NC(=O)C(=O)NCc1ccccc1)C(=O)N[C@@H](CC(=O)O)C(=O)COc1c(F)c(F)cc(F)c1F
II. CC(C)[C@H](NC(=O)C(=O)NC12CC3CC(CC(C3)C1)C2)C(=O)N[C@@H](CC(=O)O)C(=O)COc1c(F)c(F)cc(F)c1F
Challenge: Between the two listed entries I and II , which has its Ratio at the higher number? Lab note: record the label of whichever item you select.
Response given: I
(I: 472000 M⁻¹ s⁻¹, II: 59900 M⁻¹ s⁻¹)

P. C[C@H](NC(=O)C(=O)NCc1ccccc1)C(=O)N[C@@H](CC(=O)O)C(=O)COC(=O)c1c(Cl)cccc1Cl
Q. C[C@H](NC(=O)C(=O)Nc1ccccc1C(C)(C)C)C(=O)N[C@@H](CC(=O)O)C(=O)COc1ccccc1F
Challenge: Of P and Q , whose reported Ratio is numerically smaller? Use the label to indicate which entry you chose.
Response given: Q
(Q: 119000 M⁻¹ s⁻¹, P: 203000 M⁻¹ s⁻¹)

---

Target: Caspase-1 (Mus musculus)
Sequence (whole entry): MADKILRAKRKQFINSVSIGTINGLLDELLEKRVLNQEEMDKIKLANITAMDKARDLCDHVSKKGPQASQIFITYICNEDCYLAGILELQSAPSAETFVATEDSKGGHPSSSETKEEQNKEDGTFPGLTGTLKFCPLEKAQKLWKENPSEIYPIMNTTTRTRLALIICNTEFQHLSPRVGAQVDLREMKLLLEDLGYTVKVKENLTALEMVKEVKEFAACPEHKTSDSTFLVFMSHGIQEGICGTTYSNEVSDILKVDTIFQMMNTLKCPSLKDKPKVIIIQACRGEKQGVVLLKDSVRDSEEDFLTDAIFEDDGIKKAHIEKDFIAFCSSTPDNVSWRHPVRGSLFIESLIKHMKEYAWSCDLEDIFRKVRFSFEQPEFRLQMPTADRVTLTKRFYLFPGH
Test: Inhibition of mouse recombinant ICE assessed as ratio of irreversible rate constant K3 to dissociation constant of the reversible binding step Ki pre-incubated for 60 mins with Acetyl-Tyr-Val-Ala-Asp-amino-4-methylcoumarin substrate followed by enzyme addition by fluorescence based assay
value kind: Ratio (M⁻¹ s⁻¹)

compound string	target system	value kind	display unit	result
C[C@H](NC(=O)C(=O)Nc1ccc(F)cc1)C(=O)N[C@@H](CC(=O)O)C(=O)COP(=O)(c1ccccc1)c1ccccc1	Caspase-1 (Mus musculus)	Ratio	M⁻¹ s⁻¹	956000

P. CC(C)[C@H](NC(=O)C(=O)Nc1nc2ccccc2[nH]1)C(=O)N[C@@H](CC(=O)O)C(=O)COc1c(F)c(F)cc(F)c1F
Q. CC(C)[C@H](NC(=O)C(=O)Nc1ccccc1C(F)(F)F)C(=O)N[C@@H](CC(=O)O)C(=O)COc1c(F)c(F)cc(F)c1F
Challenge: Short answer wanted: higher Ratio, P or Q ? Pick one and reply with its label.
Response given: Q
(Q: 1.04e+06 M⁻¹ s⁻¹, P: 27400 M⁻¹ s⁻¹)
